- TGT: T1, Y2 receptor (UniProt P49146 1-381, limits assumed)
- T1 sequence (looked up): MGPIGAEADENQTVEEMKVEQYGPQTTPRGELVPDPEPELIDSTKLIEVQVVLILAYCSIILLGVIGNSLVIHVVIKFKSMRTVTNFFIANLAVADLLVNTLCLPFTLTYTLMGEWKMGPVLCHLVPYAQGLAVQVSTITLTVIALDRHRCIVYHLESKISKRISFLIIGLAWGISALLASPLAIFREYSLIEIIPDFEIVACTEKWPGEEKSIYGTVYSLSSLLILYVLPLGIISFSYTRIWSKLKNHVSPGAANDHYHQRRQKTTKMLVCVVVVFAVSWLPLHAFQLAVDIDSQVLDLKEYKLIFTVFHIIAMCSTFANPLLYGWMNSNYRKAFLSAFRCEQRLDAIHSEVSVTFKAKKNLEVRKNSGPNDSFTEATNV
- ASSAY: cell-based or functional assay
*1 amine or outer side, *2 acyl side, *3 side chain or, on linkers, in order; H or OH if unused. Where no end group is shown, it is not given here. Side-chain parts run from the residue outwards. The star is where a group is joined. C20 diacid = O=C(O)CCCCCCCCCCCCCCCCCCC(=O)*; γGlu = O=C(O)[C@H](CCC(=O)[*:2])N[*:1]; Trx = NC[C@H]1CC[C@H](C(=O)O)CC1; AEEA = NCCOCCOCC(=O)O
MEASURED PROPERTY: Y2 cAMP EC50 (nM)
Numbers only; they are read as nM.

Can you share its Y2 cAMP EC50? I mean this binder: APLEPVYPGDNAK([AEEA-AEEA-γGlu-Trx-C20 diacid])PEQLAQYAADLRRYLNVLTRQRY (ends and bridges not checked)
73

Same lookup for APLEPVYPGDNAK([AEEA-AEEA-γGlu-Trx-C20 diacid])PEQLAQYAADLRRYINLLTRQRY (ends and bridges not checked) , please.
54
